- Tested on: SNB-75
- assay-info: NCI tumour cell line growth inhibition, 48 h
Active and inactive are the calls of the source. No stated cut-off is given here; in the data, active = GI50 up to about 1.1 µM and inactive = higher.
The reply should be one of these categories: Y (active), N (inactive)

Given Cn1c(=O)c2c(nc3[nH]c(=O)c(Br)cn32)n(C)c1=O , state the outcome it received in this test. N

Now this one: S=C1NC(c2ccccc2)=NC(Cc2ccccc2)(c2ccccc2)N1c1ccccc1 (stereo not given) N

Follow-up item: CC1(O)CC2(O)C=CC3=C(C(=O)c4cccc(O)c4C3=O)C2(O)C(=O)C1O (stereo not given) N

# iterate: CCOc1ccc(NC(=O)C(=O)C(C(=O)c2ccc3ccccc3c2)C2OC(=O)c3ccccc32)cc1 (stereo not given) N

Quick one: CSC(=NC1=NC(C(F)(F)F)(C(F)(F)F)N=C(c2ccccc2)O1)SC N

CN1B(c2ccccc2)N(C)C(=O)N(C)C1=O ? N

Let us now turn to CC(=O)N1C(=O)/C(=C\C(=O)c2ccc([N+](=O)[O-])cc2)c2ccccc21 N

How about this compound: COc1cc(C2c3cc4c(cc3[C@@H](Nc3cccc(O)c3)C3COC(=O)[C@H]23)OCO4)cc(OC)c1O (stereo not given in full) N

One more compound: CCc1n[nH]c(=O)n1/N=C/c1ccccc1O N

Try O=C1NC(Nc2ccccc2)=NC(C(F)(F)F)(C(F)(F)F)N1 next. N

Entry CCN(CC)c1nnc(CCCCCCCCc2nnc(N(CC)CC)o2)o1 please N

Param item: Cc1cccc2c(O)c3c(O)cc(O)cc3nc12 N

And COc1ccc(C(NS(=O)(=O)c2ccc(C)cc2)c2c(C(CBr)OC)c3ccccc3n2S(=O)(=O)c2ccccc2)cc1OC (stereo not given) ? N

Thanks! And CC(=O)Nc1nc(Cl)cc(NCC2(CO)CCC2)n1 ? N

Okay, and CN(Cc1cnc2nc(N)nc(N)c2n1)c1ccc(C(=O)NC(CCC(=O)O)C(=O)O)cc1C(F)(F)F (stereo not given) ? N

Now the same for CSc1nsc(-c2ccccc2)[s+]1.[O-][Cl+3]([O-])([O-])[O-] N

Another: COc1cccc(NC(=O)/C(CC(=O)CC(c2ccccc2)c2c(O)c3ccccc3oc2=O)=N\NC(C)(C)C)c1OC (stereo not given) N

Field entry: Cc1occc1/C(S)=N\c1ccc(Cl)c(C(=O)OCC(F)(F)F)c1 N

Now the compound CN(C)c1ccc(C=c2c3cc(O)ccc3n3c2cc(-c2ccccc2)[n+]3C)cc1 Y

Same thing, different compound: C/C(=N\NC(N)=O)C(CN1CCOCC1)C(c1ccccc1)c1c(O)c2ccccc2oc1=O (stereo not given) N

Subsequent entry: COC(=O)C1(Cc2ccccc2)Cc2c(C)ccc(C)c2C1=O (stereo not given) N

How about CCOC(=O)[C@H]1Nc2ccc(OC)cc2C2c3ccccc3CC21 (stereo not given in full) ? N

Same thing, different compound: CC(C)(C)c1cc(C(O)(C(F)(F)F)C(F)(F)F)c2c(c1)C(C(F)(F)F)(C(F)(F)F)OC(c1ccccc1)(C(C)(C)C)N2 (stereo not given) N

Another: COC(=O)CCc1cc(OC)c2c(c1)[C@H](C(=O)OC)[C@@H](c1ccc(O)c(OC)c1)O2 N

# repeat for Cc1cc2c(c(C(N)=O)c1C)-c1cc(Cl)cc(Cl)c1C2=O N

What about this compound? CCOC(=O)C1=C(C)N(NC(=O)Nc2ccccc2)C2(N)N(NC(=O)Nc3ccccc3)C(C)=C(C(=O)OCC)C12C#N (stereo not given) N

Another: Oc1ccc(/C=C/c2cc(O)cc3c2C(c2cc(O)cc(O)c2)C(c2ccc(O)c(O)c2)O3)cc1 (stereo not given) N

Then CC/C(=N/O)C(C)C(=O)CCC(=O)Nc1ccc(Cl)cc1 (stereo not given) ? N

Continue with CCOC(=O)/C=C1\Nc2ccccc2C(c2ccccc2)=NC1OC(C)=O (stereo not given) N

Also COC1OC2=CCC3C(=O)NC(=O)C3C2[C@H](OCc2ccccc2)C1OCc1ccccc1 (stereo not given in full) ? N

Repeat with O=C(/C=C/c1ccc(O)cc1)c1cc(Cl)ccc1O N

What do you get for O=C1NC(c2ccccc2)N=C2Oc3ccccc3C=C12 (stereo not given) ? Y

Then what about the compound Cc1ccc(C(=O)/C=C2\Nc3ccccc3S\C2=N\CS(=O)(=O)c2ccc(C)cc2)cc1 ? N

Also Cc1ccc(C(=O)O)c(/C=C2\Cc3ccc(C)cc3C2=O)c1 ? N

Now consider CC(C)(C)S(=O)OC12CC3CC(CC(C3)C1)C2 (stereo not given) and answer again. N

Please do the same for C[C@@H]1CCC2[C@@H](C)[C@@H](OCCO[C@H]3OC4O[C@@]5(C)CCC6[C@H](C)CCC([C@H]3C)[C@@]46OO5)OC3O[C@@]4(C)CCC1[C@]32OO4 (stereo not given in full) as well. Y

Input Cc1nc(O)nc(CC(O)(c2ccccc2)c2ccccc2)c1-c1ccccc1 N

Now the compound C/C(=N\Oc1cc(Cl)ncn1)c1ccccn1 N

Same read-out for COc1ccc2c(c1)CCCN1CCc3cc(OC)c(OC)cc3C21 (stereo not given) ? N

Likewise for CNS(=O)(=O)NNS(=O)(=O)c1cccc([N+](=O)[O-])c1 ? N

---

Exercise: for every item that follows, state its recorded GI50.
- Test system: DLD-1
- assay-info: NCI tumour cell line growth inhibition, 48 h
Structures can show the parent of a compound that is named as a salt. Activity calls are given as the source filed them. Rule as the data show it: active = GI50 up to about 1.1 µM and inactive = higher.

Look up GI50 for this compound: CCOCN/C(N)=N\C#N > 100 µM (inactive)

What do you have for CN(C)CCCN1c2ccccc2Sc2ccc(C(F)(F)F)cc21 [TRIFLUPROMAZINE HYDROCHLORIDE] ? 17.2 µM (inactive)

Then what about the compound CC1=NN(C(=O)c2ccncc2)C(=O)C1/N=N/c1ccc(F)cc1 (configuration not stated) ? > 100 µM (inactive)

What do you get for OCCN(CCO)c1ncnc2c1sc(=S)n2-c1ccccc1 ? > 100 µM (inactive)

// same read-out, input: Cc1ccc(NCCO)cc1 > 100 µM (inactive)

Then this compound: CCOC(=O)NC(=O)c1cn(CCCOC(=O)CCCCCCCCC(=O)OCCCn2cc(C(=O)NC(=O)OCC)c(=O)n(C)c2=O)c(=O)n(C)c1=O > 100 µM (inactive)

What do we get for CCOC(=O)C12CCSC1C1(C#N)C(C#N)=CC2(N=P(c2ccccc2)(c2ccccc2)c2ccccc2)n2c(=O)n(-c3ccccc3)c(=O)n21 (configuration not stated) ? 35.9 µM (inactive)

---

Hi there, I'd appreciate the recorded GI50 for every entry that follows.
- Test system: NCI-H226
- assay-info: NCI tumour cell line growth inhibition, 48 h
The source made the active and inactive calls. Cut-off read from the data, not from the text of the source: active = GI50 up to about 1.1 µM and inactive = higher.

I'd like to know its GI50. The molecule in question is CN1B(c2ccccc2)N(C)C(=O)N(C)C1=O > 100 µM (inactive)

// next record CSc1nsc(-c2ccccc2)[s+]1.[O-][Cl+3]([O-])([O-])[O-] > 100 µM (inactive)

Now this one: CC(C)(C)c1cc(C(O)(C(F)(F)F)C(F)(F)F)c2c(c1)C(C(F)(F)F)(C(F)(F)F)OC(c1ccccc1)(C(C)(C)C)N2 (stereo not given) 3.24 µM (inactive)

Check CCOC(=O)c1csc(NC(=O)CCN2CCCC2)n1 too. > 100 µM (inactive)

Okay, and CC(=O)Nc1oc(C)c(C)c1S(=O)(=O)c1ccc(Cl)cc1 ? 34.4 µM (inactive)

Another molecule to check: COC(=O)[C@H](Cc1ccccc1)NC(=O)c1ccc(CNC(=O)/C=C/c2cccc(Oc3ccccc3)c2)cc1 52.7 µM (inactive)

Moving on to CN1CN(c2ccccc2)C2(CCN(C3Nc4ccccc4O3)CC2)C1=O (stereo not given) 18.6 µM (inactive)

Another: O=c1ccs[nH]1 51.1 µM (inactive)

Check COc1ccc(/C=C2/C(=O)C(c3ccccc3)N(c3ccccc3)C2=O)cc1OC (stereo not given) too. > 10 µM (inactive)

Now try O=C(O)CNC(=O)C(CSC(=O)OCC1c2ccccc2-c2ccccc21)NC(=O)CCC(NC(=O)OCC1c2ccccc2-c2ccccc21)C(=O)O (stereo not given) . 38.8 µM (inactive)

---

- Tested on: NCI-H226
- assay-info: NCI tumour cell line growth inhibition, 48 h
Active and inactive are the calls of the source. No stated cut-off is given here; in the data, active = GI50 up to about 1.1 µM and inactive = higher.
endpoint: GI50

What is its GI50 for NCI-H226? Entry: O=[N+]([O-])c1c(F)c(F)c2c(c1F)N(CCCCCl)c1ccccc1S2 17.7 µM (inactive)

Next record, please: C/C(=C\CNc1ncnc2c1ncn2CCC(=O)OC(C)(C)C)CO > 100 µM (inactive)

Now the compound CSC(=NC1=NC(C(F)(F)F)(C(F)(F)F)N=C(c2ccccc2)O1)SC 26.9 µM (inactive)

Quick one: C/N=C(/NC)N(C)c1nc(=[N+](C)C)ss1.[O-][Cl+3]([O-])([O-])[O-] 59.3 µM (inactive)

Then CCN(CC)c1nnc(CCCCCCCCc2nnc(N(CC)CC)o2)o1 ? > 100 µM (inactive)

Please answer likewise for COc1ccc(/C=N/NC(=O)NCCNCCO)cc1 > 100 µM (inactive)

Similarly, COc1ccc(CN2C(=O)C(=O)N(C)C2=O)c2ccccc12 ? > 10 µM (inactive)

Can you check CCOC(=O)NC(C(F)(F)F)(C(F)(F)F)P(=O)(OCC(C)C)OCC(C)C next? 13.9 µM (inactive)

Param item: COc1cc(C[S+]([O-])c2ccc(O)cc2)cc(OC)c1OC (centres undefined) > 100 µM (inactive)

Now try COC(=O)CC(c1cn(S(=O)(=O)c2ccc(C)cc2)c2ccccc12)C1C[C@@H](C(=O)OC)N(C(=O)OC(C)(C)C)C1=O (some centres undefined) . > 100 µM (inactive)

What would you report for CS/C(=N/C(=O)c1ccccc1Cl)SCCS/C(=N\C(=O)c1ccccc1Cl)SC ? > 100 µM (inactive)

// same read-out, input: CC(C)CC(NC(=O)C(Cc1ccccc1)NC(=O)[C@H]1CC[C@H](NC(=O)C(Cc2ccc(OC(C)(C)C)cc2)NC(=O)OC(C)(C)C)C1)C(N)=O (some centres undefined) 18.6 µM (inactive)

Try NC(CNO)C(=O)O (centres undefined) next. > 100 µM (inactive)

Another: CC1OC(OC2C(OC(=O)[C@]34CCC(C)(C)C[C@H]3C3=CC[C@@H]5[C@@]6(C)CC[C@H](OC7OC(CO)C(O)C(O)C7OC7OC(CO)C(O)C(O)C7O)C(C)(C)[C@@H]6CC[C@@]5(C)[C@]3(C)CC4)OCC(O)C2O)C(O)C(O)C1OC1OCC(O)C(O)C1O (some centres undefined) 10.8 µM (inactive)

Next entry: COc1cccc(/C=C2\SC(=S)N(/C=C3\C(=O)Oc4ccccc4C3=O)C2=O)c1O > 100 µM (inactive)

Field entry: c1ccc(P(=Nc2ccccc2N=P(c2ccccc2)(c2ccccc2)c2ccccc2)(c2ccccc2)c2ccccc2)cc1 0.337 µM (active)

Follow-up item: C/C(=C\CBr)CCC(Br)C(C)(C)Br (centres undefined) > 100 µM (inactive)

How about this compound: CCOC(=O)NC(=O)c1cn(CCCOC(=O)CCCCCCCCC(=O)OCCCn2cc(C(=O)NC(=O)OCC)c(=O)n(C)c2=O)c(=O)n(C)c1=O > 100 µM (inactive)

Likewise for C(=N\Nc1nnc2c(n1)[nH]c1ccccc12)/c1cccnc1 ? > 100 µM (inactive)

Now consider COC(=O)[C@@H]1Cc2ccc(OC)c(c2)OCCC(=O)N1 . > 100 µM (inactive)

Let us now turn to COC(=O)CCc1cc(OC)c2c(c1)[C@H](C(=O)OC)[C@@H](c1ccc(O)c(OC)c1)O2 > 100 µM (inactive)

Also CC1=C/C(=N/N2C(=O)/C(=C/c3ccc(Cl)cc3)N=C2c2ccccc2)CC(C)(C)C1 , if possible. 90.2 µM (inactive)

What about CC(C)c1ccc(C(O)(C(=O)O)c2ccc(C(C)C)cc2)cc1 ? 24.5 µM (inactive)

Now consider COc1cccc2c1[C@]1(O)C(O)CCCC21 (some centres undefined) and answer again. > 100 µM (inactive)

Would you mind doing CCOC(OCC)C(CCc1ccccc1)c1c(N)nc(N)[nH]c1=O (centres undefined) as well? 41.2 µM (inactive)

Now give it for COc1ccc(C[C@H]2COC(=O)[C@@H]2Cc2ccccc2)cc1OC too. > 100 µM (inactive)

Another: O=S1(=O)OCCOS(=O)(=O)C1(I)I 15.3 µM (inactive)

Another: CN1N=CSC12C(=O)N(c1ccc(Cl)cc1)C(=O)N2c1ccc(Cl)cc1 (centres undefined) 3.04 µM (inactive)

Here is the next compound: Cc1cn2cc(-c3ccncc3)nc2s1 > 100 µM (inactive)

Field entry: COc1ccc(C(NS(=O)(=O)c2ccc(C)cc2)c2c(C(CBr)OC)c3ccccc3n2S(=O)(=O)c2ccccc2)cc1OC (centres undefined) > 100 µM (inactive)

Would you kindly repeat that for NCCNc1cccc2ccccc12 ? > 100 µM (inactive)

Now give it for Clc1ccc(C(c2ccccc2Cl)C(Cl)Cl)cc1 (centres undefined) [MITOTANE] too. 16.5 µM (inactive)

O=C(O)c1ccc(Nc2nc3cc(C(F)(F)F)ccc3nc2C(=O)O)cc1 ? > 100 µM (inactive)

Queued: Cc1ccc(NCCO)cc1 > 100 µM (inactive)

Repeat for the following compound: CC1c2ccccc2Cn2cc3c(c21)C(=O)c1cccc(OP(=O)(O)OCc2ccccc2)c1C3=O (centres undefined) > 100 µM (inactive)

Repeat with CCOC(=O)C(Cc1ccc(OC(=O)c2ccc(OC)cc2OC)cc1)NC(=O)C(F)(F)F (centres undefined) 65.2 µM (inactive)

Same read-out for O=C(/C=C/c1ccc(O)cc1)c1cc(Cl)ccc1O ? 95.9 µM (inactive)

Another compound to check: CC(=O)N1C(=O)/C(=C\C(=O)c2ccc([N+](=O)[O-])cc2)c2ccccc21 > 100 µM (inactive)

Now the same for O=[N+]([O-])c1ccc(N/N=C/CC(O)(C(F)(F)F)C(F)(F)F)c([N+](=O)[O-])c1 3.72 µM (inactive)
